The measured values listed here are drawn from patent US10023570B2.

# measuredOn: N-terminal GST tagged recombinant human RET cytoplasmic domain (aa 658-end), wild type RET kinase (Homo sapiens (Human), UniProt P07949)
# Sequence (P07949 658-1114): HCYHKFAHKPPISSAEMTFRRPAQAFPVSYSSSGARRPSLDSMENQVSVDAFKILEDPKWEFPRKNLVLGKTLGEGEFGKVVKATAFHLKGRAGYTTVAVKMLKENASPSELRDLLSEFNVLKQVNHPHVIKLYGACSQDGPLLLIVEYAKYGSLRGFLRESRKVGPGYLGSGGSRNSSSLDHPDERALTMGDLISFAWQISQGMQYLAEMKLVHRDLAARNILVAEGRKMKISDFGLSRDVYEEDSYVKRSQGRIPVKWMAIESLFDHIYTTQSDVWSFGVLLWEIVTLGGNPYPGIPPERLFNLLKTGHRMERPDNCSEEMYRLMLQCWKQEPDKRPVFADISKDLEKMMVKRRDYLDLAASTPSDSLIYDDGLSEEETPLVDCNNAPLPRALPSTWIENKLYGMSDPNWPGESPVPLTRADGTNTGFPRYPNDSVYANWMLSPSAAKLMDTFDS
# assayText: RET Enzyme Assay (HTRF KinEASE-TK), wild type RET
# Assay type: biochemical
# testConditions: wild type RET, 1 mM ATP
Counter-ions that a name gives are not always drawn.
Property: IC50; scope: individual compounds
Kindly provide the numeric value in nM only, without the unit symbol.

The reported value for COC(CNC(=O)C1CCN(c2ccc(-c3cc(-c4cnn(C)c4)cn4ncc(C#N)c34)cn2)CC1)C(C)C (centres unmarked) in terms of IC50 is 4

The reported value for `CC(C)NC(=O)CC1CCN(c2ccc(-c3cc(-c4cnn(C)c4)cn4ncc(C#N)c34)cn2)CC1` in terms of IC50 is 26.6

The reported value for `COc1ccc(CN2CCN(c3ccc(-c4cc(-c5cnn(CC(=O)N(C)C)c5)cn5ncc(C#N)c45)cn3)CC2)cn1` in terms of IC50 is 20

The reported value for `C[C@H](NC(=O)C1CCN(c2ccc(-c3cc(-c4cnn(C)c4)cn4ncc(C#N)c34)cn2)CC1)C(F)(F)F` in terms of IC50 is 6.9

The reported value for `CC(C)OC(=O)NC1CCN(c2ccc(-c3cc(-c4cnn(C)c4)cn4ncc(C#N)c34)cn2)CC1` in terms of IC50 is 16.8

The reported value for COC(CN1CCN(c2ccc(-c3cc(-c4cnn(C)c4)cn4ncc(C#N)c34)cn2)CC1)C(C)C (centres unmarked) in terms of IC50 is 15.6

The reported value for `Cn1cc(-c2cc(-c3ccc(N4CCN(CCOC(F)(F)F)CC4)nc3)c3c(C#N)cnn3c2)cn1` in terms of IC50 is 11.1

The reported value for `CC(C)C(=O)NC1(C)CCN(c2ccc(-c3cc(-c4cnn(C)c4)cn4ncc(C#N)c34)cn2)CC1` in terms of IC50 is 5.8

***
The reported value for `Cn1cc(-c2cc(-c3ccc(N4CCC(NC(=O)C(C)(C)O)CC4)nc3)c3c(C#N)cnn3c2)cn1` in terms of IC50 is 18

The reported value for Cn1cc(-c2cc(-c3ccc(N4CCN(C(=O)C(C)(C)C)CC4)nc3)c3c(C#N)cnn3c2)cn1 [Example 34, trifluoroacetate] in terms of IC50 is 34.8

The reported value for `COc1ccc(CN2CCN(c3ccc(-c4cc(-c5cnn(CC(C)(C)O)c5)cn5ncc(C#N)c45)cn3)CC2)cn1` in terms of IC50 is 15.3

The reported value for `COc1ncc(F)cc1CN1CCN(c2ccc(-c3cc(-c4cnn(C)c4)cn4ncc(C#N)c34)cn2)CC1` in terms of IC50 is 13.1

The reported value for `CC(C)OCCN1CCN(c2ccc(-c3cc(-c4cnn(C(F)F)c4)cn4ncc(C#N)c34)cn2)CC1` in terms of IC50 is 13.6

The reported value for `Cn1cc(-c2cc(-c3ccc(N4CCN(Cc5ccc(OCC(F)(F)F)nc5)CC4)nc3)c3c(C#N)cnn3c2)cn1` in terms of IC50 is 42.5

---

# measuredOn: Kif5b-RET fusion protein in HEK-293 cells (Homo sapiens, UniProt P07949)
# Sequence (P07949 29-1114 limits assumed): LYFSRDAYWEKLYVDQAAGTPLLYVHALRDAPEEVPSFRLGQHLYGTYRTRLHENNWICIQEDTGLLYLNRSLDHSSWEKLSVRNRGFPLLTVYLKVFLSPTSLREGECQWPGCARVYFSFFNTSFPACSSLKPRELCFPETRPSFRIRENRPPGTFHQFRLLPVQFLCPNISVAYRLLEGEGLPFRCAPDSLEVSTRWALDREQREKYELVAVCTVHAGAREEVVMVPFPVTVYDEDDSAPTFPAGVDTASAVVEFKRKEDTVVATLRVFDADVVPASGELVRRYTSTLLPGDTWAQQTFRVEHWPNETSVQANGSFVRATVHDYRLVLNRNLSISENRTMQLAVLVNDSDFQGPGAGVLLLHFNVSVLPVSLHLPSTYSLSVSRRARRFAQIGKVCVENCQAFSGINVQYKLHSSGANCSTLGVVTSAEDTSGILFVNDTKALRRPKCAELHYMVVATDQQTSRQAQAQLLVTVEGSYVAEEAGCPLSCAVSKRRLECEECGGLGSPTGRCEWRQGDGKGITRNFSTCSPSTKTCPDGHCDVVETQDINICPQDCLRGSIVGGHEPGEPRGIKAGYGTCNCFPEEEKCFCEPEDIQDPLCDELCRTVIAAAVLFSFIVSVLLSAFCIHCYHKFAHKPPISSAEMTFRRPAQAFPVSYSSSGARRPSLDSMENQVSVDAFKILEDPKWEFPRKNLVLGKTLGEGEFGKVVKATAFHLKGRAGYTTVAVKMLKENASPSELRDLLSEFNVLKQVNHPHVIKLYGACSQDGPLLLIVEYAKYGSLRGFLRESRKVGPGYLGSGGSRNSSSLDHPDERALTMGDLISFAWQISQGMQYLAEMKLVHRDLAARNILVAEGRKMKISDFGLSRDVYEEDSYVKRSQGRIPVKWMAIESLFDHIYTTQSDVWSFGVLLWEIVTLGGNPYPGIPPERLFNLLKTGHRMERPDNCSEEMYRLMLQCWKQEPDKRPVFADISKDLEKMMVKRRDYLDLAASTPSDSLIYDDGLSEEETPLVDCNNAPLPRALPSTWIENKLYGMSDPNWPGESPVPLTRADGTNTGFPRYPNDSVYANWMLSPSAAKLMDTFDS
# assayText: cell-based
# testConditions: HEK-293 cells expressing Kif5b-RET, phospho-RET(Tyr1062); read-out: KIF5B-RET pTYR1062 Cell IC50
# Experimental: The cellular potency of a compound inhibiting RET kinase was determined in HEK-293 cells expressing a Kif5b-RET fusion protein. Briefly, HEK-293 cells expressing a Kif5b-RET fusion protein were plated at 50K cells/well in 96 well poly-D-Lysine coated plates the day prior to the assay. […] The plates were washed with PBS-0.05% Tween20, 100 μL PBS was added to each well, and the plates were read on a LI-COR Aerius fluorescent plate reader. […]
observationType: pIC50
// pIC50 here means minus log10 of the molar concentration (mol/L)

The reported value for `CCC1(C(=O)NCCC(F)(F)F)CCN(c2ccc(-c3cc(-c4cnn(C)c4)cn4ncc(C#N)c34)cn2)CC1` in terms of pIC50 is 8.14

The reported value for `COC(=O)C1(C)CCN(c2ccc(-c3cc(-c4cnn(C)c4)cn4ncc(C#N)c34)cn2)CC1` in terms of pIC50 is 7.91

The reported value for `C[C@@H](O)C(=O)NC1CCN(c2ccc(-c3cc(-c4cnn(C)c4)cn4ncc(C#N)c34)cn2)CC1` in terms of pIC50 is 6.96

***
The reported value for `CC(C)NC(=O)NC1CCN(c2ccc(-c3cc(-c4cnn(C)c4)cn4ncc(C#N)c34)cn2)CC1` in terms of pIC50 is 7.69

The reported value for `CC[C@@H](CO)NC(=O)N1CCN(c2ccc(-c3cc(-c4cnn(C)c4)cn4ncc(C#N)c34)cn2)CC1` in terms of pIC50 is 6.57

The reported value for `CN(C)C(=O)NC1CCN(c2ccc(-c3cc(-c4cnn(C)c4)cn4ncc(C#N)c34)cn2)CC1` in terms of pIC50 is 7.65

The reported value for `C[C@@H](O)C(=O)N1CCN(c2ccc(-c3cc(-c4cnn(C)c4)cn4ncc(C#N)c34)cn2)CC1` in terms of pIC50 is 6.97

---

# measuredOn: Kif5b-RET fusion protein in HEK-293 cells (Homo sapiens, UniProt P07949)
# assayText: cell-based
# testConditions: HEK-293 cells expressing Kif5b-RET; read-out: KIF5B-RET pTYR1062 Cell IC50
Property: pIC50; scope: individual molecules
// pIC50 here means minus log10 of the molar concentration (mol/L)

Sample records with pIC50:
The reported value for COc1ccc(CN2CCN(c3ccc(-c4cc(-c5cnn(CCS(=O)(=O)C(C)C)c5)cn5ncc(C#N)c45)cn3)CC2)cn1 [Example 703] in terms of pIC50 is 8.01

The reported value for Cn1cc(-c2cc(-c3ccc(N4CCN(Cc5ccc(OC(F)F)nc5)CC4)nc3)c3c(C#N)cnn3c2)cn1 [Example 675] in terms of pIC50 is 7.62

The reported value for COc1ccc(CN2CCN(c3ccc(-c4cc(-c5cnn(C[C@@H](C)O)c5)cn5ncc(C#N)c45)cn3)CC2)cn1 [Example 700] in terms of pIC50 is 8.28

The reported value for Cn1cc(-c2cc(-c3ccc(N4CCC(C(=O)NOC(C)(C)C)CC4)nc3)c3c(C#N)cnn3c2)cn1 [Example 565] in terms of pIC50 is 7.99

The reported value for CONC(=O)C1CCN(c2ccc(-c3cc(-c4cnn(C)c4)cn4ncc(C#N)c34)cn2)CC1 [Example 564] in terms of pIC50 is 7.58

The reported value for COC(CN1CCN(c2ccc(-c3cc(-c4cnn(C)c4)cn4ncc(C#N)c34)cn2)CC1)C(C)(C)C (centres unmarked) [Example 417] in terms of pIC50 is 7.31

The reported value for COc1cccc(CN2CCN(c3ccc(-c4cc(-c5cnn(C)c5)cn5ncc(C#N)c45)cn3)CC2)n1 [Example 399] in terms of pIC50 is 8.11

The reported value for CN(C)C(=O)C1CCN(c2ccc(-c3cc(-c4cnn(C)c4)cn4ncc(C#N)c34)cn2)CC1 [Example 562, 2,2,2-trifluoroacetate] in terms of pIC50 is 7.23

The reported value for Cn1cc(-c2cc(-c3ccc(N4CCN(Cc5ccccc5)CC4)nc3)c3c(Cl)cnn3c2)cn1 [Example 647] in terms of pIC50 is 7.20

The reported value for COCCN(CCOC)C(=O)N1CCN(c2ccc(-c3cc(-c4cnn(C)c4)cn4ncc(C#N)c34)cn2)CC1 [Example 385] in terms of pIC50 is 7.33

***
The reported value for Cn1cc(-c2cc(-c3ccc(N4CCC(S(=O)(=O)O)CC4)nc3)c3c(C#N)cnn3c2)cn1 [Example 568] in terms of pIC50 is 5.30

---

Property: pIC50; scope: individual compounds
# measuredOn: human KDR protein in HEK-293 cells (Homo sapiens (Human), UniProt P35968)
# Sequence (P35968 20-1356): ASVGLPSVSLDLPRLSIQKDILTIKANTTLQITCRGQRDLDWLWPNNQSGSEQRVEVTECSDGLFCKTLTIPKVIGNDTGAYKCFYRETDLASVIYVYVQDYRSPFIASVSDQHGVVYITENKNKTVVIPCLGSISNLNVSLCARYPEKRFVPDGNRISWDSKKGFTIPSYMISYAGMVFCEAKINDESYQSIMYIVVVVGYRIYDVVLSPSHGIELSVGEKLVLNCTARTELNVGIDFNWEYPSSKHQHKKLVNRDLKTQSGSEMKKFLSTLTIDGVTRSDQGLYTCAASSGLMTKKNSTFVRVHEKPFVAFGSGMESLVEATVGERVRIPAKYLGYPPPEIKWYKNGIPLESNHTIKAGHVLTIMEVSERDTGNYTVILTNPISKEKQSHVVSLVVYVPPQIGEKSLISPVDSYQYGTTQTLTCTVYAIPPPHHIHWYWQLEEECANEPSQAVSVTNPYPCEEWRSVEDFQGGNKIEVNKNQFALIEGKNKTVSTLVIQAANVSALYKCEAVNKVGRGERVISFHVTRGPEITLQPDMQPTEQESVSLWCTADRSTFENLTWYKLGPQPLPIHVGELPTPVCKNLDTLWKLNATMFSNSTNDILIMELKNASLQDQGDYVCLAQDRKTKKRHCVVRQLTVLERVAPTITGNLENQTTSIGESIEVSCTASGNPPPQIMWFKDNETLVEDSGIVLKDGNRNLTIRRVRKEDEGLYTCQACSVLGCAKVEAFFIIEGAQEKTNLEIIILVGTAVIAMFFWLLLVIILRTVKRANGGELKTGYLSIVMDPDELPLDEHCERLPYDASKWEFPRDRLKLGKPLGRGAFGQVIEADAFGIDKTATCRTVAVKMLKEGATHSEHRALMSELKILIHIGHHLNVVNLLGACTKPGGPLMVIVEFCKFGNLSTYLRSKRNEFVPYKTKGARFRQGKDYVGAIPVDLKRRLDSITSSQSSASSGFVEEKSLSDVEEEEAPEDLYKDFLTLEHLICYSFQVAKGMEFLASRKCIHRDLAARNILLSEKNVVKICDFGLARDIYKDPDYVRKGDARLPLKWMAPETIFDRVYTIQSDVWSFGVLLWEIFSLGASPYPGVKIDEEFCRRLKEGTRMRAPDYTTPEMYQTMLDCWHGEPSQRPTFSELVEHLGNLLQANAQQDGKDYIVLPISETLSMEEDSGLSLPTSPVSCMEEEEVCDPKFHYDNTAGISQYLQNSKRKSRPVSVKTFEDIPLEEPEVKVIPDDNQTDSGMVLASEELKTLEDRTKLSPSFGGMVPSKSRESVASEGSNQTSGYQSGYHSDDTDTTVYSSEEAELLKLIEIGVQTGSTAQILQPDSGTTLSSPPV
# assayText: KDR Cell Assay (phospho-KDR in HEK-293 cells expressing inducible KDR)
# Type: cell-based
# testConditions: pKDR Cell HEK 10% FBS IC50, HEK-293 cells expressing inducible KDR, VEGF stimulated, 10% FBS
// pIC50 here means minus log10 of the molar concentration (mol/L)

Sample records with pIC50:
The reported value for `COC(=O)C1(C)CCN(c2ccc(-c3cc(-c4cnn(C)c4)cn4ncc(C#N)c34)cn2)CC1` in terms of pIC50 is 6.35

The reported value for `Cn1cc(-c2cc(-c3ccc(N4CCN(C(=O)CC(C)(C)O)CC4)nc3)c3c(C#N)cnn3c2)cn1` in terms of pIC50 is 5.90

The reported value for `CCC1(C(=O)NCCC(F)(F)F)CCN(c2ccc(-c3cc(-c4cnn(C)c4)cn4ncc(C#N)c34)cn2)CC1` in terms of pIC50 is 5.96

The reported value for `CN(C)CC(=O)N1CCN(c2ccc(-c3cc(-c4cnn(C)c4)cn4ncc(Cl)c34)cn2)CC1` in terms of pIC50 is 5.86

The reported value for `Cn1cc(-c2cc(-c3ccc(C4CCN(C(=O)CC(C)(C)C)CC4)cc3)c3c(C#N)cnn3c2)cn1` in terms of pIC50 is 5.52

The reported value for `Cn1cc(-c2cc(-c3ccc(N4CCN(C(=O)N5CCCC5)CC4)nc3)c3c(C#N)cnn3c2)cn1` in terms of pIC50 is 6.21

***
The reported value for `Cn1cc(-c2cc(-c3ccc(N4CCN(CC(C)(C)O)CC4)nc3)c3c(C#N)cnn3c2)cn1` in terms of pIC50 is 5.76

The reported value for Cn1cc(-c2cc(-c3ccc(N4CCN(C(=O)Cc5ccc(F)cn5)CC4)nc3)c3c(C#N)cnn3c2)cn1 [Example 360, bis(2,2,2-trifluoroacetate)] in terms of pIC50 is 6.41

The reported value for `Cn1cc(-c2cc(-c3ccc(N4CCN(C(=O)N5C6CCC5CC6)CC4)nc3)c3c(C#N)cnn3c2)cn1` in terms of pIC50 is 5.88

The reported value for `C[C@H]([C@H](O)c1ccccc1)N1CCN(c2ccc(-c3cc(-c4cnn(C)c4)cn4ncc(C#N)c34)cn2)CC1` in terms of pIC50 is 5.89

The reported value for `Cn1cc(-c2cc(-c3ccc(N4CCC(C)(NC(=O)OC(C)(C)C)CC4)nc3)c3c(C#N)cnn3c2)cn1` in terms of pIC50 is 5.94

The reported value for `Cn1cc(-c2cc(-c3ccc(N4CCN(C(=O)N5CCCCC5)CC4)nc3)c3c(C#N)cnn3c2)cn1` in terms of pIC50 is 5.77

The reported value for Cn1cc(-c2cc(-c3ccc(N4CCN(CC(O)c5ccc(F)cc5)CC4)nc3)c3c(C#N)cnn3c2)cn1 (centres unmarked) in terms of pIC50 is 7.13
